EXPERIMENTAL_SYSTEM: eNOS (Bos taurus, UniProt P29473)
Construct: purchased Sigma Chem. (St. Louis, MO)
Sequence (P29473 2-1205 limits assumed): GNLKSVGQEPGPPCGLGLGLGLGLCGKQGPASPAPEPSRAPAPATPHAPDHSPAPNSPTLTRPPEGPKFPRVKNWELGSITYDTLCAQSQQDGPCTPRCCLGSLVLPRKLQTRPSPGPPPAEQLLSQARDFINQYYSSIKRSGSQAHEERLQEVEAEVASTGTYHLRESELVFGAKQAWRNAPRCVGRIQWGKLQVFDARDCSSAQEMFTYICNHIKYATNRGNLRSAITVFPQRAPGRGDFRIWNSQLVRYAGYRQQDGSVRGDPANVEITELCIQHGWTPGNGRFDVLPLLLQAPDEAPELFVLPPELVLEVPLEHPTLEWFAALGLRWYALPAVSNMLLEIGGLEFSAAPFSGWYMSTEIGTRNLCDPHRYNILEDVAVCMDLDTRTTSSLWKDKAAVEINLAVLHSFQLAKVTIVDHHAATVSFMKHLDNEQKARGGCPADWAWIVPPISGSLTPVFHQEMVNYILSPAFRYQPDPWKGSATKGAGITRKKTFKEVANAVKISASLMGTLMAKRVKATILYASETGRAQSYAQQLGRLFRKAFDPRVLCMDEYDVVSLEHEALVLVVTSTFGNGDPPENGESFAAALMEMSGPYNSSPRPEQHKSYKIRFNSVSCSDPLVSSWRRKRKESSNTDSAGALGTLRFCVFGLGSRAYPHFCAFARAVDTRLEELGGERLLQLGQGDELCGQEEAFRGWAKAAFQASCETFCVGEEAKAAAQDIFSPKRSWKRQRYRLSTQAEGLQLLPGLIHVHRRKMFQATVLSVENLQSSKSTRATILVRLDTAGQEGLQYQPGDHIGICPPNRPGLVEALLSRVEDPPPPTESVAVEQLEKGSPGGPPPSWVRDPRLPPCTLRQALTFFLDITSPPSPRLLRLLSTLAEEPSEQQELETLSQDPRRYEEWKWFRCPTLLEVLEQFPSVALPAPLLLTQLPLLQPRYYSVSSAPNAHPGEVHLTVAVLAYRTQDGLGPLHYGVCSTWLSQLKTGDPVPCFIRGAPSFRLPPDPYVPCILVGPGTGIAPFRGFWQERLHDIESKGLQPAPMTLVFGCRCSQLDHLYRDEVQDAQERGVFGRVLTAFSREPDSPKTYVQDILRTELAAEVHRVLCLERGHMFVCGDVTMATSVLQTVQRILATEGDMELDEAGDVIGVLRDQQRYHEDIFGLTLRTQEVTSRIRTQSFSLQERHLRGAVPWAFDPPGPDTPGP
PROTOCOL_SUMMARY: NOS activity assay, conversion of L-[14C(U)]-arginine to L-[14C(U)]-citrulline, recombinant eNOS
Type: biochemical, bovine
ASSAY_CONDITIONS: up to the highest concentration (100 µM)
From the text: Secosterol-A and -B were synthesized according to Wentworth et al.([1]) L-Arginine, nicotinamide adenine dinucleotide phosphate reduced form (NADPH), flavin adenine dinucleotide (FAD), flavin mononucleotide (FMN), (6R)-5,6,7,8-tetrahydrobiopterin (BH4), recombinant eNOS (from bovine), iNOS (from mouse macrophages), and Dowex® AG50W-X8 cation-exchange resin (mesh size, 100–200) were all purchased from Sigma Chem. (St. Louis, MO). […]
REPORTED_ENDPOINT: Effect on eNOS activity

Below are worked cases with known answers.
- MOLECULE: "CC(C)CCC[C@@H](C)[C@H]1CC[C@H]2[C@@H]3[C@@H](C=O)[C@]4(O)C[C@@H](O)CC[C@]4(C)[C@H]3CC[C@]12C [secosterol-B]"
  Effect on eNOS activity: "do not affect"
- MOLECULE: "C[C@H](CCCC(C)(C)O)[C@H]1CC[C@H]2[C@@H]3CC=C4C[C@@H](O)CC[C@]4(C)[C@H]3CC[C@]12C [25-hydroxycholesterol]"
  Effect on eNOS activity: "do not affect"
- MOLECULE: "CC(C)CCC[C@@H](C)[C@H]1CC[C@H]2[C@@H]3C[C@H]4O[C@]45C[C@@H](O)CC[C@]5(C)[C@H]3CC[C@]12C [5β,6β-epoxycholesterol]"
  Effect on eNOS activity: "do not affect"
- MOLECULE: "CC(C)CCC[C@@H](C)[C@H]1CC[C@H]2[C@@H]3C(=O)C=C4C[C@@H](O)CC[C@]4(C)[C@H]3CC[C@]12C [7-ketocholesterol, 3β-hydroxy-5-cholesten-7-one]"
  Effect on eNOS activity: "do not affect"

We now examine a further molecule.
Value of Effect on eNOS activity reported for the molecule CC(C)CCC[C@@H](C)[C@H]1CC[C@H]2[C@@H]3CC=C4C[C@@H](O)CC[C@]4(C)[C@H]3CC[C@]12C [cholesterol] is do not affect
